# system_name: ATP-dependent translocase ABCB1 (Homo sapiens)
# Sequence (P08183 whole entry): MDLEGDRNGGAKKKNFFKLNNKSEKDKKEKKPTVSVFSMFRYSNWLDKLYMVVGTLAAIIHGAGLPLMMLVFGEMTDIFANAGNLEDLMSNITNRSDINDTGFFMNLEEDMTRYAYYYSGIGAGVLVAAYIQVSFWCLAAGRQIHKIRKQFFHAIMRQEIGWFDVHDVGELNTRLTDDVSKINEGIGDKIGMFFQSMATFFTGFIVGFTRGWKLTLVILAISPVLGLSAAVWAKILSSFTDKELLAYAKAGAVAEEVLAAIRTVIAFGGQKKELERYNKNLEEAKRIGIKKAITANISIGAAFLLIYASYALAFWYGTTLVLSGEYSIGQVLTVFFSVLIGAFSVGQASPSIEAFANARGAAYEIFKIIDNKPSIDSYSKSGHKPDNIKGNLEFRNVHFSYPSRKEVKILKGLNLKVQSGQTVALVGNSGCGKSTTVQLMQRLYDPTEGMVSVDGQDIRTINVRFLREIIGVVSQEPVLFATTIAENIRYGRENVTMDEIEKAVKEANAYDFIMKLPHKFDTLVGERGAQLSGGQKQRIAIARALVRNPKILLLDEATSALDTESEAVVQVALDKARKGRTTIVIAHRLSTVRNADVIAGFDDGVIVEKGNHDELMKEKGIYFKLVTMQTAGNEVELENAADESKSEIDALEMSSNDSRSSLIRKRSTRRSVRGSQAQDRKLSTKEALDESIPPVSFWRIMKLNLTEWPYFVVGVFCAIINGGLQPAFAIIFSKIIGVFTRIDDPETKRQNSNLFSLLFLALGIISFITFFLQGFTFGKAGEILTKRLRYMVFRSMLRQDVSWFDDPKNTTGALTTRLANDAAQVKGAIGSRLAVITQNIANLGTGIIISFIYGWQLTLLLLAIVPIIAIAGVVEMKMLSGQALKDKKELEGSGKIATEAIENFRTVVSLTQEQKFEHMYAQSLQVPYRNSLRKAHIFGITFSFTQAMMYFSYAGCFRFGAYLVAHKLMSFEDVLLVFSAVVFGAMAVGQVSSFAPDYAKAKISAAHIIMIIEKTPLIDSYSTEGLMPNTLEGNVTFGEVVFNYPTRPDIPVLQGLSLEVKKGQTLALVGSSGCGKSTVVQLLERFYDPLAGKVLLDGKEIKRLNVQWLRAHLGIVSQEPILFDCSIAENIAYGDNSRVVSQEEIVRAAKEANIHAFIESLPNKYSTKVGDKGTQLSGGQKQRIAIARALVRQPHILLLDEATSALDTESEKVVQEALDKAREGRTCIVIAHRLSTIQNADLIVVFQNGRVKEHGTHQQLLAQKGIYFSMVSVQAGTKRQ
# measurement_protocol: Inhibition of human MDR1 expressed in MDCK cells assessed as calcein AM accumulation after 30 mins by fluorescence assay
# Type: cell-based
# test_conditions: read-out: IC50
pIC50: −log10 of the molar value.
readout_kind: pIC50

INSERT INTO measurements (chemical_structure, system_name, readout_kind, assay_result) VALUES
  ('COc1cc(C(=O)Nc2ccc(-c3ccc(O)c(O)c3)cc2[N+](=O)[O-])cc(O)c1O', 'ATP-dependent translocase ABCB1 (Homo sapiens)', 'pIC50', '< 4.00'),
  ('COc1cc(C(=O)Nc2ccc(-c3ccccc3)cc2NC(C)=O)cc(O)c1O', 'ATP-dependent translocase ABCB1 (Homo sapiens)', 'pIC50', '< 4.00');

Turning now to a further compound:
# lookup: pIC50 of COc1cc(NC(=O)c2ccc(-c3ccccc3)cc2[N+](=O)[O-])cc(O)c1O
< 4.00
